Data origin, for the record: ChEMBL document CHEMBL3885861

Species: Rattus norvegicus
Experimental protocol: Open TG-GATES - Regimen: Single
Assay type: toxicity, organism-based, Sprague-Dawley
Design: regimen Single, gender Male, age 6 weeks
Conditions used: in vivo, po, 0 mg/kg, 9 h, tissue Blood, route gavage, dose level Control

>  <Compound>
Nc1ccc(Cc2ccc(N)cc2)cc1

>  <Plat / x10_4/uL>
137.5

$$$$
>  <Compound>
CN(CCOc1ccc(CC2SC(=O)NC2=O)cc1)c1ccccn1.O=C(O)/C=C\C(=O)O (stereo not drawn) [ROSIGLITAZONE MALEATE]

>  <Plat / x10_4/uL>
123

$$$$
>  <Compound>
O=C(O)c1ccccc1Nc1ccccc1

>  <Plat / x10_4/uL>
129.3

$$$$
>  <Compound>
CC(=O)[C@@]1(O)CC[C@H]2[C@@H]3C=C(Cl)C4=CC(=O)CC[C@]4(C)[C@H]3CC[C@@]21C

>  <Plat / x10_4/uL>
123.4

$$$$
>  <Compound>
CN(C)CCCN1c2ccccc2Sc2ccc(Cl)cc21

>  <Plat / x10_4/uL>
122.8

$$$$
>  <Compound>
NS(=O)(=O)c1cc(C(=O)O)c(NCc2ccco2)cc1Cl [FUROSEMIDE]

>  <Plat / x10_4/uL>
108.3

$$$$
>  <Compound>
COc1ccc([C@@H]2Sc3ccccc3N(CCN(C)C)C(=O)[C@@H]2OC(C)=O)cc1

>  <Plat / x10_4/uL>
126.8

$$$$
>  <Compound>
CC(S)C(=O)NCC(=O)O (stereo not drawn)

>  <Plat / x10_4/uL>
121.4

$$$$
>  <Compound>
CCCCNC(=O)NS(=O)(=O)c1ccc(C)cc1 [TOLBUTAMIDE]

>  <Plat / x10_4/uL>
121

$$$$
>  <Compound>
CCO

>  <Plat / x10_4/uL>
112.2

$$$$
>  <Compound>
CCN(CC)C(=S)SSC(=S)N(CC)CC

>  <Plat / x10_4/uL>
107.7

$$$$
>  <Compound>
O=c1ccc2ccccc2o1

>  <Plat / x10_4/uL>
117.4

$$$$
>  <Compound>
CN(C/C=C/C#CC(C)(C)C)Cc1cccc2ccccc12

>  <Plat / x10_4/uL>
119.3

$$$$

* * *

Species: Rattus norvegicus
Experimental protocol: Open TG-GATES - Regimen: Daily Repeat
Type: toxicity, organism-based, Sprague-Dawley
Design: regimen Daily Repeat, gender Male, age 6 weeks
Conditions used: in vivo, po, 100 mg/kg, 72 h, tissue Plasma, route gavage, dose level Low, time 3 day

>  <Molecule>
CC(=O)[C@@]1(O)CC[C@H]2[C@@H]3C=C(Cl)C4=CC(=O)CC[C@]4(C)[C@H]3CC[C@@]21C

>  <A/G>
1.3

$$$$
>  <Molecule>
CCCCNC(=O)NS(=O)(=O)c1ccc(C)cc1 [TOLBUTAMIDE]

>  <A/G>
0.9

$$$$
>  <Molecule>
O=C(O)c1ccccc1Nc1ccccc1

>  <A/G>
0.9

$$$$
>  <Molecule>
CC(S)C(=O)NCC(=O)O (centres undefined)

>  <A/G>
1.2

$$$$

* * *

Species: Rattus norvegicus
Experimental protocol: Open TG-GATES - Regimen: Daily Repeat
Assay type: toxicity, organism-based, Sprague-Dawley
Parameters: regimen Daily Repeat, gender Male, age 6 weeks
Conditions used: in vivo, po, 1000 mg/kg, […], tissue Plasma, route gavage, dose level High, time 7 day

>  <Compound>
CCCCNC(=O)NS(=O)(=O)c1ccc(C)cc1 [TOLBUTAMIDE]

>  <Value units>
g/dL

>  <RALB>
2.5

$$$$
>  <Compound>
CC(=O)[C@@]1(O)CC[C@H]2[C@@H]3C=C(Cl)C4=CC(=O)CC[C@]4(C)[C@H]3CC[C@@]21C [CHLORMADINONE]

>  <Value units>
g/dL

>  <RALB>
3.3

$$$$
>  <Compound>
O=C(O)c1ccccc1Nc1ccccc1 [FENAMIC ACID]

>  <Value units>
g/dL

>  <RALB>
2.6

$$$$
>  <Compound>
CC(S)C(=O)NCC(=O)O (centres undefined) [TIOPRONIN]

>  <Value units>
g/dL

>  <RALB>
2.9

$$$$

* * *

Organism: Rattus norvegicus
Experimental protocol: Open TG-GATES - Regimen: Single
Type: toxicity, organism-based, Sprague-Dawley
Set-up: regimen Single, gender Male, age 6 weeks
Conditions used: in vivo, po, 0 mg/kg, 24 h, route gavage, dose level Control
Value kind: TERMINAL_BW (g)

>  <Molecule>
O=C(O)c1ccccc1Nc1ccccc1

>  <Value kind>
TERMINAL_BW

>  <Value units>
g

>  <Meas value>
218.8

$$$$
>  <Molecule>
CN(C)CCCN1c2ccccc2Sc2ccc(Cl)cc21

>  <Value kind>
TERMINAL_BW

>  <Value units>
g

>  <Meas value>
233.7

$$$$
>  <Molecule>
O=c1ccc2ccccc2o1

>  <Value kind>
TERMINAL_BW

>  <Value units>
g

>  <Meas value>
191.8

$$$$
>  <Molecule>
CC(=O)[C@@]1(O)CC[C@H]2[C@@H]3C=C(Cl)C4=CC(=O)CC[C@]4(C)[C@H]3CC[C@@]21C

>  <Value kind>
TERMINAL_BW

>  <Value units>
g

>  <Meas value>
233

$$$$
>  <Molecule>
Nc1ccc(Cc2ccc(N)cc2)cc1

>  <Value kind>
TERMINAL_BW

>  <Value units>
g

>  <Meas value>
219.7

$$$$
>  <Molecule>
CCO

>  <Value kind>
TERMINAL_BW

>  <Value units>
g

>  <Meas value>
219

$$$$
>  <Molecule>
CCN(CC)C(=S)SSC(=S)N(CC)CC

>  <Value kind>
TERMINAL_BW

>  <Value units>
g

>  <Meas value>
229.8

$$$$
>  <Molecule>
C=C[C@H]1C[N@@]2CC[C@H]1C[C@@H]2[C@@H](O)c1ccnc2ccc(OC)cc12

>  <Value kind>
TERMINAL_BW

>  <Value units>
g

>  <Meas value>
227.4

$$$$
>  <Molecule>
CC(S)C(=O)NCC(=O)O (stereo not given)

>  <Value kind>
TERMINAL_BW

>  <Value units>
g

>  <Meas value>
219.9

$$$$
>  <Molecule>
CN(CCOc1ccc(CC2SC(=O)NC2=O)cc1)c1ccccn1.O=C(O)/C=C\C(=O)O (stereo not given) [ROSIGLITAZONE MALEATE]

>  <Value kind>
TERMINAL_BW

>  <Value units>
g

>  <Meas value>
219.8

$$$$
>  <Molecule>
CCCCNC(=O)NS(=O)(=O)c1ccc(C)cc1 [TOLBUTAMIDE]

>  <Value kind>
TERMINAL_BW

>  <Value units>
g

>  <Meas value>
220

$$$$
>  <Molecule>
CN(C/C=C/C#CC(C)(C)C)Cc1cccc2ccccc12

>  <Value kind>
TERMINAL_BW

>  <Value units>
g

>  <Meas value>
238.7

$$$$
>  <Molecule>
NS(=O)(=O)c1cc(C(=O)O)c(NCc2ccco2)cc1Cl [FUROSEMIDE]

>  <Value kind>
TERMINAL_BW

>  <Value units>
g

>  <Meas value>
222.4

$$$$
>  <Molecule>
COc1cc2ncnc(Nc3ccc(F)c(Cl)c3)c2cc1OCCCN1CCOCC1

>  <Value kind>
TERMINAL_BW

>  <Value units>
g

>  <Meas value>
223.4

$$$$
>  <Molecule>
COc1ccc([C@@H]2Sc3ccccc3N(CCN(C)C)C(=O)[C@@H]2OC(C)=O)cc1

>  <Value kind>
TERMINAL_BW

>  <Value units>
g

>  <Meas value>
198.1

$$$$

* * *

As shown below, each of these compounds has a reported APTT value.
Species: Rattus norvegicus
Experimental protocol: Open TG-GATES - Regimen: Daily Repeat
Type: toxicity, organism-based, Sprague-Dawley
Parameters: regimen Daily Repeat, gender Male, age 6 weeks
Conditions used: in vivo, po, 300 mg/kg, […], tissue Blood, route gavage, dose level Middle, time 7 day

>  <Compound>
CCCCNC(=O)NS(=O)(=O)c1ccc(C)cc1 [TOLBUTAMIDE]

>  <APTT [s]>
17.8

$$$$
>  <Compound>
CC(S)C(=O)NCC(=O)O (centres undefined) [TIOPRONIN]

>  <APTT [s]>
22.2

$$$$
>  <Compound>
CC(=O)[C@@]1(O)CC[C@H]2[C@@H]3C=C(Cl)C4=CC(=O)CC[C@]4(C)[C@H]3CC[C@@]21C [CHLORMADINONE]

>  <APTT [s]>
29.5

$$$$
>  <Compound>
O=C(O)c1ccccc1Nc1ccccc1 [FENAMIC ACID]

>  <APTT [s]>
16.6

$$$$

* * *

As shown below, each of these molecules has a reported Mono value.
Organism: Rattus norvegicus
Experimental protocol: Open TG-GATES - Regimen: Single
Format: toxicity, organism-based, Sprague-Dawley
Design: regimen Single, gender Male, age 6 weeks
Conditions used: in vivo, po, 0 mg/kg, 24 h, tissue Blood, route gavage, dose level Control
Value kind: Mono (%)

>  <Molecule>
CCCCNC(=O)NS(=O)(=O)c1ccc(C)cc1 [TOLBUTAMIDE]

>  <Value kind>
Mono

>  <Value units>
%

>  <Meas value>
3

$$$$
>  <Molecule>
Nc1ccc(Cc2ccc(N)cc2)cc1

>  <Value kind>
Mono

>  <Value units>
%

>  <Meas value>
1.8

$$$$
>  <Molecule>
CC(S)C(=O)NCC(=O)O (stereo not given) [TIOPRONIN]

>  <Value kind>
Mono

>  <Value units>
%

>  <Meas value>
3

$$$$
>  <Molecule>
CCO [ALCOHOL]

>  <Value kind>
Mono

>  <Value units>
%

>  <Meas value>
9.8

$$$$
>  <Molecule>
COc1ccc([C@@H]2Sc3ccccc3N(CCN(C)C)C(=O)[C@@H]2OC(C)=O)cc1 [DILTIAZEM]

>  <Value kind>
Mono

>  <Value units>
%

>  <Meas value>
3.4

$$$$
>  <Molecule>
CN(C)CCCN1c2ccccc2Sc2ccc(Cl)cc21 [CHLORPROMAZINE]

>  <Value kind>
Mono

>  <Value units>
%

>  <Meas value>
3

$$$$
>  <Molecule>
COc1cc2ncnc(Nc3ccc(F)c(Cl)c3)c2cc1OCCCN1CCOCC1 [GEFITINIB]

>  <Value kind>
Mono

>  <Value units>
%

>  <Meas value>
3.5

$$$$
>  <Molecule>
NS(=O)(=O)c1cc(C(=O)O)c(NCc2ccco2)cc1Cl [FUROSEMIDE]

>  <Value kind>
Mono

>  <Value units>
%

>  <Meas value>
3.2

$$$$
>  <Molecule>
CN(CCOc1ccc(CC2SC(=O)NC2=O)cc1)c1ccccn1.O=C(O)/C=C\C(=O)O (stereo not given) [ROSIGLITAZONE MALEATE]

>  <Value kind>
Mono

>  <Value units>
%

>  <Meas value>
5.2

$$$$
>  <Molecule>
CN(C/C=C/C#CC(C)(C)C)Cc1cccc2ccccc12 [TERBINAFINE]

>  <Value kind>
Mono

>  <Value units>
%

>  <Meas value>
2.8

$$$$
>  <Molecule>
O=C(O)c1ccccc1Nc1ccccc1 [FENAMIC ACID]

>  <Value kind>
Mono

>  <Value units>
%

>  <Meas value>
2

$$$$
>  <Molecule>
C=C[C@H]1C[N@@]2CC[C@H]1C[C@@H]2[C@@H](O)c1ccnc2ccc(OC)cc12 [QUINIDINE]

>  <Value kind>
Mono

>  <Value units>
%

>  <Meas value>
1.8

$$$$
>  <Molecule>
O=c1ccc2ccccc2o1 [COUMARIN]

>  <Value kind>
Mono

>  <Value units>
%

>  <Meas value>
8.8

$$$$
>  <Molecule>
CCN(CC)C(=S)SSC(=S)N(CC)CC

>  <Value kind>
Mono

>  <Value units>
%

>  <Meas value>
2.6

$$$$
>  <Molecule>
CC(=O)[C@@]1(O)CC[C@H]2[C@@H]3C=C(Cl)C4=CC(=O)CC[C@]4(C)[C@H]3CC[C@@]21C [CHLORMADINONE]

>  <Value kind>
Mono

>  <Value units>
%

>  <Meas value>
2.2

$$$$
